// provenance: ChEMBL document CHEMBL1126683

Here the recorded IC50 is given for each entry.
system: HT-29; experiment: Growth inhibition of HT 29 cell line by MTT reduction for 3 days of incubation time; assay type: functional, cell-based; details: Homo sapiens, HT-29, 72 h
Please reply with the bare figure in µg/mL and do not write the unit itself.

* CC1O[C@@H](O[C@H]2C[C@](O)(CO)Cc3c(O)c4c(c(O)c32)C(=O)c2ccccc2C4=O)C[C@@H](O)[C@@H]1N.Cl (stereo not given in full) | 0.01
* COc1cccc2c1C(=O)c1c(O)c3c(c(O)c1C2=O)C[C@@](O)(C(=O)CO)C[C@@H]3O[C@H]1C[C@H](N)[C@H](O)[C@H](C)O1 | 0.06
* CC1O[C@@H](O[C@H]2C[C@](O)(CO)Cc3c(O)c4c(c(O)c32)C(=O)c2ccccc2C4=O)C[C@@H](O)[C@@H]1N=[N+]=[N-] (stereo not given in full) | 0.46
* CC1O[C@@H](O[C@H]2C[C@](O)(CO)Cc3c(O)c4c(c(O)c32)C(=O)c2ccccc2C4=O)C[C@@H](O)[C@@H]1N1CCOCC1 (stereo not given in full) | 0.13

Lab note: next compound to report on.
Report IC50, nothing else, for this compound: CC1O[C@@H](O[C@H]2C[C@](O)(CO)Cc3c(O)c4c(c(O)c32)C(=O)c2ccccc2C4=O)C[C@@H](O)[C@@H]1NC(=O)C(F)(F)F (stereo not given in full)
0.026

----------
tested on: L1210; experiment: Growth inhibition of L1210 murine leukemia cells after 1 hr exposure in untreated control culture; assay type: functional, cell-based; conditions: Mus musculus, L1210, 1 h
Each record is given Fulfilled if its reported IC50 is strictly below 0.04 mg/L. Records at or above 0.04 mg/L are given Not fulfilled.

Quick check: does CC1O[C@@H](O[C@H]2C[C@](O)(CO)Cc3c(O)c4c(c(O)c32)C(=O)c2ccccc2C4=O)C[C@@H](O)[C@@H]1N.Cl (stereo not given in full) have IC50 under 0.04 mg/L?
Fulfilled

Take the compound CC1O[C@@H](O[C@H]2C[C@](O)(CO)Cc3c(O)c4c(c(O)c32)C(=O)c2ccccc2C4=O)C[C@@H](O)[C@@H]1N=[N+]=[N-] (stereo not given in full) and say whether its IC50 is less than 0.04 mg/L.
Not fulfilled

# strict comparison: is reported IC50 < 0.04 mg/L? input = CC1O[C@@H](O[C@H]2C[C@](O)(CO)Cc3c(O)c4c(c(O)c32)C(=O)c2ccccc2C4=O)C[C@@H](O)[C@@H]1N1CCOCC1 (stereo not given in full)
Not fulfilled

In the record for CC1O[C@@H](O[C@H]2C[C@](O)(CO)Cc3c(O)c4c(c(O)c32)C(=O)c2ccccc2C4=O)C[C@@H](O)[C@@H]1NC(=O)C(F)(F)F (stereo not given in full) , is IC50 less than 0.04 mg/L?
Fulfilled
